Tested on: Fibroblast
experiment description: Incucyte cell viability with human fibroblast; further: unitless GR value; below 1 slowed growth and below 0 cell loss
Format: toxicity, cell-based
assay context: 24 h, 10 µM, compound concentration 10 uM, replicate number 2
Numbered stars: 1 amine (or outer) side, 2 acyl side, 3 side chain; on linkers, the order of the positions; unused ones are H or OH. Bridge positions count the residues as written; N and C are the ends. Square brackets hold non-standard residues; d marks the D form. Peptide text beside a SMILES is read from it. I, II: the chains in the order shown. Hexamethylenediamine = C(CCCN[*:2])CCN[*:1]; Dip = N[C@H](C(=O)O)C(c1ccccc1)c1ccccc1; Chg = N[C@H](C(=O)O)C1CCCCC1; NMeA = CN[C@@H](C)C(=O)O
Could you mark each record met if its Growth Rate falls strictly under 0.7, and not met if it equals or exceeds it?

Does the reported Growth Rate of the following molecule sit strictly below 0.7? CN1CCN(C(=O)c2ccc(N(C)c3ncc(C(F)(F)F)c(N[C@@H]4CCC[C@@H]4C(N)=O)n3)cc2)CC1.Cl
not met

Continue with CC(C)C[C@H](NC(=O)[C@@H](O)[C@H](N)Cc1ccccc1)C(=O)O
not met

# iterate: COc1ccc(-n2nc(C(F)(F)F)cc2-c2ccc(Cl)cc2)cc1
met

Would you kindly repeat that for O=C(CCCN1CCC(O)(c2ccc(Cl)cc2)CC1)c1ccc(F)cc1 ?
met

And CCOc1cc(CC(=O)N[C@@H](CC(C)C)c2ccccc2N2CCCCC2)ccc1C(=O)O [REPAGLINIDE] ?
not met

Now this one: Cc1nn(-c2ccccc2)c(Nc2ccccc2C(=O)O)c1-c1cc2nccnc2c(F)c1F
not met

Would you kindly repeat that for CC(=O)N1CCC(c2ccc(C(=O)NC(=N)N)cc2C(F)(F)F)CC1 ?
not met

Please answer likewise for O=C1COc2cc(C(=O)N(Cc3ccc(C(=O)Nc4ccncn4)cc3)C3CC3)ccc2N1
not met

Also need OC(c1ccc(-c2ccc(CN3CCN(Cc4ccncc4)CC3)cc2)c(F)c1)(C(F)(F)F)C(F)(F)F , thanks.
met

Now consider CN1C(=O)c2ccccc2N(C)c2nc(Nc3cnn(C4CCNCC4)c3)ncc21 and answer again.
met

Continue with O=C(Nc1ccccc1Br)N[C@@H]1CCN(c2ccc(C(F)(F)F)cn2)C1
met

Now the same for CC(C)c1cnn2c(NCc3ccccc3)cc(NCCCCCCN)nc12.Cl
not met

Same thing, different molecule: Cl.Cl.NC1(c2ccc(-c3nc4ccn5c(=O)[nH]nc5c4cc3-c3ccccc3)cc2)CCC1
met

Queued: CC1(C)CC(CN2CCC(F)(CNC(=O)c3cc(Cl)cc(Cl)c3)CC2)CCO1 (stereo not drawn)
not met

Try the molecule CN(C)C/C=C/C(=O)Nc1cc2c(Nc3ccc(F)c(Cl)c3)ncnc2cc1OC[C@@H]1CCCO1
met

Entry CC(C)C[C@H](NC(=O)c1cc2ccccc2s1)C(=O)N1CCN(C(=O)[C@H](CO)NS(=O)(=O)c2ccc(Cl)cc2Cl)CC1 please
met

Can you check CC(C)n1cnc2c(Nc3cccc(Cl)c3)nc(N[C@H]3CCCC[C@@H]3N)nc21 next?
met

Request: CCNC1=N[C@@H]2[C@@H](O)[C@H](O)[C@@H](CO)O[C@@H]2S1
not met

Now give it for CC/C(=C(\c1ccc(O)cc1)c1ccc(OCCN(C)C)cc1)c1ccccc1 too.
met

Try NC(=O)C1CCCc2c1[nH]c1ccc(Cl)cc21 (stereo not drawn) next.
not met

Repeat for the following molecule: CC[N+](CC)(CC)CCOc1ccc(/C=C/c2ccccc2)cc1.[I-] [STILONIUM IODIDE]
met

For COC1(C#Cc2ccc(Cl)c(-c3ncc4c(n3)-c3sc(NC(C)=O)nc3CC4)c2)CCN(C)CC1 then?
met

Continue with O=C(O)C(F)(F)F.O=C1NC(=O)/C(=C/c2c[nH]c(=O)c(-c3ccc(N4CCNCC4)nc3)c2)S1
not met

Record: CC(C)n1cc(-c2ccc(N3CCN(C)CC3)c(NC(=O)c3ccc(-c4ccncc4)o3)c2)cn1
met

Now this one: CN[C@@H](C)C(=O)N[C@H](C(=O)N1CCC[C@H]1C(=O)N[C@H](C(=O)NCCCCCCNC(=O)[C@@H](NC(=O)[C@@H]1CCCN1C(=O)[C@@H](NC(=O)[C@H](C)NC)C1CCCCC1)C(c1ccccc1)c1ccccc1)C(c1ccccc1)c1ccccc1)C1CCCCC1 (I: H-[NMeA][Chg]P[Dip] / II: H-[NMeA][Chg]P[Dip]; linker I:C-II:C via Hexamethylenediamine)
met

What do you have for CCN1CCN(Cc2ccc(C(=O)Nc3ccc(C)c(Oc4ccc5c(c4)CC(=O)N5)c3)cc2C(F)(F)F)CC1.Cl.Cl ?
met

Subsequent entry: C[C@H](CCC(=O)O)[C@H]1CC[C@H]2[C@@H]3CC[C@@H]4C[C@H](O)CC[C@]4(C)[C@H]3CC[C@]12C
not met

Can you handle CCCCC(C)(O)C/C=C/[C@H]1[C@H](O)CC(=O)[C@@H]1CCCCCCC(=O)O (stereo partly drawn) next?
not met

Next record, please: FC(F)(F)Oc1ccc(-c2ccc3nnc(C(F)(F)F)n3c2)cc1
not met

Follow-up item: Cc1[nH]nc2ccc(-c3cncc(OCC(N)Cc4c[nH]c5ccccc45)c3)cc12 (stereo not drawn)
met

Next molecule: O=c1cc(-c2cc(F)c(Cl)nc2Cl)[nH]c2c(-c3ccccc3)c(C(F)(F)F)nn12
not met

Every entry's value here was drawn from ChEMBL document CHEMBL5303304.
